- tgt: T1, Cynomolgus monkey recombinant glycophorin A ectodomain (Cynomolgus monkey)
- T1 construct: extracellular domain
- test-description: ELISA, Fab on coated recombinant cyno GPA ectodomain
Please provide measured binding in ELISA relative to parental Fab for the entries that follow.

Illustrative cases are given below, each with its answer.
# binder, measured
records = [
    ("TPP-5695, Hu6C12-24 Fab variant VH: (L70M, T72R) (Fab, V domains shown, Built on the parental Fab TPP-4935) VH: EVQLVQSGAEVKKPGASVKVSCKASGYTFTTYTIHWVRQAPGQGLEWIGYINPSSDYTRYNPKFKDRVTMTRDKSTSTAYMELRSLRSDDTAVYYCQTGTRDYWGQGTTVTVSS VL: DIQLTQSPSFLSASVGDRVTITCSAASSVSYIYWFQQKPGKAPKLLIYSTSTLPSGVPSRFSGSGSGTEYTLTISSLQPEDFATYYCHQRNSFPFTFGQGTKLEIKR", "1.1 relative to parental Fab"),
    ("TPP-5702, Hu6C12-24 Fab variant VL: (S24R, A26S, S49A, P54Q, F95Y) (Fab, V domains shown, Built on the parental Fab TPP-4935) VH: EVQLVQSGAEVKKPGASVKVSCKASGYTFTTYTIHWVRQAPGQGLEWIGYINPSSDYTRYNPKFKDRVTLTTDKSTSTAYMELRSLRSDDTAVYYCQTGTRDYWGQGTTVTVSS VL: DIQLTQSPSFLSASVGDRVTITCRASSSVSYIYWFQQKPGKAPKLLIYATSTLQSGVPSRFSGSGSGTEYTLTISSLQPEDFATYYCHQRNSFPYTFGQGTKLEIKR", "1.1 relative to parental Fab"),
    ("TPP-5677, Hu6C12-24 Fab variant VH: (I48M, D66G, L70M) (Fab, V domains shown, Built on the parental Fab TPP-4935) VH: EVQLVQSGAEVKKPGASVKVSCKASGYTFTTYTIHWVRQAPGQGLEWMGYINPSSDYTRYNPKFKGRVTMTTDKSTSTAYMELRSLRSDDTAVYYCQTGTRDYWGQGTTVTVSS VL: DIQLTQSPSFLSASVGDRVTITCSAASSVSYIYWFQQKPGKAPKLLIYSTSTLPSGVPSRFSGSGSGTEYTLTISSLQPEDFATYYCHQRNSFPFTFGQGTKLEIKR", "1.2 relative to parental Fab"),
    ("TPP-5700, Hu6C12-24 Fab variant VL: (S24R, A26S, F95Y) (Fab, V domains shown, Built on the parental Fab TPP-4935) VH: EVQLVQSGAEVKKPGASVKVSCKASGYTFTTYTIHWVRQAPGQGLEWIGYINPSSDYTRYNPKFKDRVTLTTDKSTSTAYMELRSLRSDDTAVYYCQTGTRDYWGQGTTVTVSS VL: DIQLTQSPSFLSASVGDRVTITCRASSSVSYIYWFQQKPGKAPKLLIYSTSTLPSGVPSRFSGSGSGTEYTLTISSLQPEDFATYYCHQRNSFPYTFGQGTKLEIKR", "1.2 relative to parental Fab"),
]

Next, consider the following binder.
Query (binder): TPP-5703, Hu6C12-24 Fab variant VL: (N91S) (Fab, V domains shown, Built on the parental Fab TPP-4935) VH: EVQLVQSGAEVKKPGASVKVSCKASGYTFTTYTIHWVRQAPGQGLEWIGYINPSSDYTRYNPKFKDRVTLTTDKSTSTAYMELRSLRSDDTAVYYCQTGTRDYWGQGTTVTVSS VL: DIQLTQSPSFLSASVGDRVTITCSAASSVSYIYWFQQKPGKAPKLLIYSTSTLPSGVPSRFSGSGSGTEYTLTISSLQPEDFATYYCHQRSSFPFTFGQGTKLEIKR ; field requested: binding in ELISA relative to parental Fab
0.9 relative to parental Fab
